Overview of recorded IC50 for various compounds
Test system: Candida parapsilosis
Assay: Anti-fungal activity against Candida parapsilosis ATCC 22019 after 48 hrs by broth microdilution method
Type: functional
Conditions: Lodderomyces parapsilosis, ATCC 22019, 48 h

{"compound": "O=c1c2ccccc2sn1C1CCCCC1", "measure": "IC50", "recorded-measurement": "0.7 µg/mL"}
{"compound": "CC(C)Cn1sc2ccccc2c1=O", "measure": "IC50", "recorded-measurement": "1 µg/mL"}
{"compound": "O=c1c2ccccc2sn1C1CCCCC1n1sc2ccccc2c1=O (centres undefined)", "measure": "IC50", "recorded-measurement": "> 50 µg/mL"}

// CC(=O)Nc1ccccc1-n1sc2ccccc2c1=O : IC50 value = > 50 µg/mL

// COC(=O)[C@H](CC(C)C)n1sc2ccccc2c1=O : IC50 value = 2.4 µg/mL

// COc1ccccc1-n1sc2ccccc2c1=O : IC50 value = 0.7 µg/mL

// COC(=O)[C@H](c1ccccc1)n1sc2ccccc2c1=O : IC50 value = > 50 µg/mL

// C[C@@H](c1ccccc1)n1sc2ccccc2c1=O : IC50 value = 0.7 µg/mL

// COC(=O)[C@H](C)NC(=O)[C@H](C)n1sc2ccccc2c1=O : IC50 value = > 50 µg/mL

// Nc1ccccc1-n1sc2ccccc2c1=O : IC50 value = > 50 µg/mL

// O=c1c2ccccc2sn1CCn1sc2ccccc2c1=O : IC50 value = > 50 µg/mL

// COC(=O)[C@H](C(C)C)n1sc2ccccc2c1=O : IC50 value = 1.6 µg/mL

// CC[C@H](C)[C@@H](C(=O)OC)n1sc2ccccc2c1=O : IC50 value = 3.1 µg/mL

// COc1ccc(-n2sc3ccccc3c2=O)cc1 : IC50 value = 0.6 µg/mL

// COC(=O)[C@@H](NC(=O)[C@H](C(C)C)n1sc2ccccc2c1=O)C(C)C : IC50 value = > 50 µg/mL

// Cc1ccc(-n2sc3ccccc3c2=O)cc1 : IC50 value = 0.4 µg/mL

// O=c1c2ccccc2sn1-c1ccccc1-n1sc2ccccc2c1=O : IC50 value = 15.2 µg/mL

// CC(Cn1sc2ccccc2c1=O)n1sc2ccccc2c1=O (centres undefined) : IC50 value = > 50 µg/mL

// O=c1c2ccccc2sn1-c1ccccc1 : IC50 value = 0.7 µg/mL

---

Overview of recorded IC50 for various compounds
Test system: Sporothrix schenckii
Experiment: Anti-fungal activity against Sporothrix schenckii after 48 hrs by broth microdilution method
Type: functional
Provide only the numeric value, understood in µg/mL.

Worked set:
{"compound": "O=c1c2ccccc2sn1C1CCCCC1", "tested-system": "Sporothrix schenckii", "IC50, µg/mL": 0.4}
{"compound": "COC(=O)[C@H](C)n1sc2ccccc2c1=O", "tested-system": "Sporothrix schenckii", "IC50, µg/mL": 2.9}
{"compound": "CC(Cn1sc2ccccc2c1=O)n1sc2ccccc2c1=O (configuration not stated)", "tested-system": "Sporothrix schenckii", "IC50, µg/mL": 3.7}

// O=c1c2ccccc2sn1-c1ccccc1 : IC50 value = 0.6

// COC(=O)[C@H](C(C)C)n1sc2ccccc2c1=O : IC50 value = 2.5

// COC(=O)[C@H](CC(C)C)n1sc2ccccc2c1=O : IC50 value = 2.9
